Target: T1, streptavidin (UniProt P22629 37-163, limits assumed)
T1 construct: It was used without a stated label in the sandwich assays; also called SA
T1 sequence (P22629 37-163 limits assumed): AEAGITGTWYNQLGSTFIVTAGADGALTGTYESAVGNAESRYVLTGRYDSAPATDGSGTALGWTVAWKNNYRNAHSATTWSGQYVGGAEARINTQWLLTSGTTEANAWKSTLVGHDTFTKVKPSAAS
Assay: sandwich assay: SA in 50% urine, biotin-HRP/TMB detection

binder: 3xSP77.6k thin film (3x rcSso7d.SA-PNIPAM conjugate, PNIPAM Mn 77.6 kDa) (designed binder, maleimide end-functionalized PNIPAM (Mn 77.6 kDa) on the N-terminal Cys; film lightly crosslinked with glutaraldehyde) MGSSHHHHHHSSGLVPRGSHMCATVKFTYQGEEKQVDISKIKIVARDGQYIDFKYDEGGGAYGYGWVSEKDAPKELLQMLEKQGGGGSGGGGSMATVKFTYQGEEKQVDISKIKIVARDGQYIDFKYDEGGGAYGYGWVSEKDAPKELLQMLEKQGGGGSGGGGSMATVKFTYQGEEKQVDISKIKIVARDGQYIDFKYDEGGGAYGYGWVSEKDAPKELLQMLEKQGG
unitString: nM
LOD: 33
//
binder: 3xSP30.3k thin film (3x rcSso7d.SA-PNIPAM conjugate, PNIPAM Mn 30.3 kDa) (designed binder, maleimide end-functionalized PNIPAM (Mn 30.3 kDa) on the N-terminal Cys; film lightly crosslinked with glutaraldehyde) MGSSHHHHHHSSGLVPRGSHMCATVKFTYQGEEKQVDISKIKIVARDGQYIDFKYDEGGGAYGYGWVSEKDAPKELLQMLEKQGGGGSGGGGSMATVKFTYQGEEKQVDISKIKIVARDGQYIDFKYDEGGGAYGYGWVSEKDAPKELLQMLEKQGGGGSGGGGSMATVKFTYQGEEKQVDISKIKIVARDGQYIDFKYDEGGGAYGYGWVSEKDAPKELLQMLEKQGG
unitString: nM
LOD: 28
//
binder: rcSso7d.SA monolayer (designed binder, EDC/NHS-activated protein coupled to an amine-functionalized silicon wafer, also called monomeric rcSso7d.SA; surface-immobilized rcSso7d.SA) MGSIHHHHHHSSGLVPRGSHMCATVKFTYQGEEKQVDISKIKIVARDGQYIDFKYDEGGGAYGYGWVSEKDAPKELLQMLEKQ
unitString: nM
LOD: 32
//
binder: 3xSP9.6k thin film (3x rcSso7d.SA-PNIPAM conjugate, PNIPAM Mn 9.6 kDa) (designed binder, maleimide end-functionalized PNIPAM (Mn 9.6 kDa) on the N-terminal Cys; film lightly crosslinked with glutaraldehyde) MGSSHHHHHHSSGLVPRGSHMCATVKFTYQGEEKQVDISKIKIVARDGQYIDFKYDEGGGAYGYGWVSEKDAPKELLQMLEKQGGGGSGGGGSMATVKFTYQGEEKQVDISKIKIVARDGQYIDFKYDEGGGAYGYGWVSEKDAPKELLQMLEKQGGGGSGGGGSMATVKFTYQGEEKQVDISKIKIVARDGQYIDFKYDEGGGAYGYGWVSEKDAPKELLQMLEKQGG
unitString: nM
LOD: 39
